# Test system: PC-3
# ASSAY: Cytotoxicity against androgen receptor deficient human PC3 cells after 72 hrs by MTT assay
# Type: functional, cell-based
# COND: PC-3, 72 h
ASSAY_ENDPOINT: IC50 (µM)
Numbers only, in µM.

Lookup: Recorded IC50 for O=C(O)CCCc1ccc(N(CCCl)CCCl)cc1 [CHLORAMBUCIL] , please?
Found: 131
